The measured values listed here are drawn from PubChem BioAssay AID1159580.

# ASSAY_DETAILS: chemical genetic growth profiling, strain panel (AID 1159580);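 also: tested at 20 µM; growth read once vehicle control cultures reached saturation at 30 °C; 1 = growth at the plate median or of vehicle wells; lower values mean less growth of the strain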
# COND: S. cerevisiae deletion strains, growth OD, locus YOR265W, strain rbl2, hits give low values
The campaign covered roughly 5,500 compounds. About 2,000 (36%) were called active. Inconclusive results (about 18%) are left out. Some of the results follow.
normalized growth values, listed per item
Lab note: jot down the number only; don't add units.

NCC(CC(=O)O)c1ccc(Cl)cc1 (configuration not stated) ... 1

Recorded result, N[C@@H]1[C@@H](O)[C@H](O)[C@@H](CO)O[C@H]1O , normalized growth: 1.06

Recorded result, O=C(O)CCCOc1ccc(Cl)cc1Cl , normalized growth: 0.943

Recorded result, CN1CCN(C2=Nc3ccccc3Oc3ccc(Cl)cc32)CC1 , normalized growth: 0.99

Recorded result, Clc1ccc2c(c1)C(N1CCNCC1)=Nc1ccccc1O2 , normalized growth: 0.992

Recorded result, CN(C)CCOC(=O)C(c1ccccc1)C1(O)CCCC1 (configuration not stated) , normalized growth: 0.998

Recorded result, c1ccc2nc(N3CCNCC3)ccc2c1 , normalized growth: 1

###

# ASSAY_DETAILS: chemical genetic growth profiling, strain panel (AID 1159580);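 also: tested at 20 µM; growth read once vehicle control cultures reached saturation at 30 °C; 1 = growth at the plate median or of vehicle wells; lower values mean less growth of the strain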
# COND: S. cerevisiae deletion strains, growth OD, locus YKR026C, strain gcn3
The whole screen tested about 5,500 compounds, of which about 2,000 (36%) were called active. About 18% were inconclusive and are not listed. Cut-off read from the data, not from the text of the source: active = normalized growth mostly below about 0.91 (no sharp cut-off); inconclusive = no clear call, values can overlap the other calls; inactive = mostly above about 0.92. The list shows a part of the results.
Result category, one only: true (1) = active, false (0) = inactive

C=Cc1c(C)c2[n-]c1=Cc1[n-]c(c(CC)c1C)C=c1[n-]c3c(c1C)C(=O)C(C(=O)[O-])C=3c1[n-]c(c(C)c1CCC(=O)[O-])C=2.[Cu] (stereo not given) ... true (1)
C=C1C2=CC(=O)O[C@@H](c3ccoc3)[C@]2(C)CCC1[C@@]1(C)C=CC(=O)C(C)(C)[C@@H]1CC(=O)OC (stereo not given in full) ... false (0)
C[C@@H](N)[C@@H](O)c1ccccc1 ... false (0)
C[C@H](N)[C@H](O)c1cccc(O)c1 ... false (0)

Task: Call for entry C=C1C(C2(C)C=CC(=O)C(C)(C)C2CC(=O)OC)CC[C@@]2(C)[C@H](c3ccoc3)OC(=O)C3OC132 (stereo not given in full) :
Result: false (0)

Task: Call for entry CCCCS(=N)(=O)CCC(N)C(=O)O (stereo not given) :
Result: false (0)

Task: Call for entry NC(=O)c1ncn(C2O[C@H](CO)[C@@H](O)[C@H]2O)c1N (stereo not given in full) :
Result: false (0)

###

# ASSAY_DETAILS: chemical genetic growth profiling, strain panel (AID 1159580);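 also: tested at 20 µM; growth read once vehicle control cultures reached saturation at 30 °C; 1 = growth at the plate median or of vehicle wells; lower values mean less growth of the strain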
# COND: S. cerevisiae deletion strains, growth OD, locus YJL095W, strain BCK1, hits give low values
About 2,000 (36%) of roughly 5,500 compounds were called active. Roughly 18% stayed inconclusive and do not appear here. Some of the results follow.
Returns: string. Value is True if measured normalized growth is below 1, and False if it is greater than or equal to it.

O=C1/C(=C/c2ccc(C(F)(F)F)cc2)COc2ccccc21 ... True
NCCOB(c1ccccc1)c1ccccc1 ... True
CCCCSP(=O)(SCCCC)SCCCC ... False
COc1cc(S(C)=O)ccc1-c1nc2ncccc2[nH]1 (configuration not stated) ... False
O=C1/C(=C/c2cccs2)COc2ccccc21 ... True
OC[C@H]1OC([S-])[C@H](O)[C@@H](O)[C@@H]1O.[Au+] (some centres not stated) ... False
O=C1CSC(c2ccc(C(F)(F)F)cc2)N1c1ccc(C(F)(F)F)cc1 (configuration not stated) ... True
COc1cc2c(cc1O)C(Cc1ccc(O)cc1)N(C)CC2 (configuration not stated) ... False
Cc1nn(Cc2nnc(SCc3cccc(C(F)(F)F)c3)o2)c(C)c1Br ... True
COc1ccc(CC2CCC(=NOC(=O)c3ccc(C(C)(C)C)cc3)CC2)cc1 (configuration not stated) ... True

Task: Consider the compound COC(=O)CCCOc1ccc(Cl)cc1Cl . Is its normalized growth strictly less than 1?
Result: True

Task: Consider the compound CCSCCC(N)C(=O)O (configuration not stated) . Is its normalized growth strictly less than 1?
Result: False

Task: Consider the compound CC1C/C(=N/Nc2ccc(Br)cc2)c2cc(Cl)ccc2S1 (configuration not stated) . Is its normalized growth strictly less than 1?
Result: True
